These entries and their values trace back to ChEMBL document CHEMBL1154814.

Entries and their measured MIC follow.
- System: Escherichia coli
- test-protocol: Antibacterial activity against Escherichia coli ATCC 10536 after 24 hrs by NCCLS method
- Assay type: functional
- condition: ATCC 10536, 24 h
property: MIC

molecule	target-system	test-result
NC[C@H]1O[C@H](O[C@H]2[C@H](O)[C@@H](O[C@H]3O[C@H](CO)[C@@H](O)[C@H](N)[C@H]3O)[C@H](N)C[C@@H]2N)[C@H](O)[C@@H](O)[C@@H]1O.O=S(=O)(O)O [KANAMYCIN SULFATE]	Escherichia coli	8 µg/mL
O=C(O[C@@H]1Cc2c(O)cc(O)cc2O[C@@H]1c1ccc(O)c(O)c1)c1cc(O)c(O)c(O)c1 [EPICATECHIN GALLATE]	Escherichia coli	> 128 µg/mL
Oc1cc(O)c2c(c1)O[C@H](c1ccc(O)c(O)c1)[C@H](O)C2 [(-)-EPICATECHIN]	Escherichia coli	> 128 µg/mL
Oc1cc(O)c2c(c1)O[C@H](c1ccc(O)c(O)c1)[C@@H](OCc1ccccc1)C2	Escherichia coli	> 128 µg/mL
Oc1cc(O)c2c(c1)O[C@H](c1ccc(O)c(O)c1)[C@@H](O)C2	Escherichia coli	> 128 µg/mL
O=C(O[C@@H]1Cc2c(O)cc(O)cc2O[C@@H]1c1cc(O)c(O)c(O)c1)c1cc(O)c(O)c(O)c1 [EPIGALOCATECHIN GALLATE]	Escherichia coli	> 128 µg/mL
COc1cc(CO[C@H]2Cc3c(O)cc(O)cc3O[C@@H]2c2ccc(O)c(O)c2)cc(OC)c1OC	Escherichia coli	64 µg/mL
Oc1cc(O)c2c(c1)O[C@H](c1cc(O)c(O)c(O)c1)[C@H](O)C2 [EPIGALLOCATECHIN]	Escherichia coli	> 128 µg/mL
CCCO[C@H]1Cc2c(O)cc(O)cc2O[C@@H]1c1ccc(O)c(O)c1	Escherichia coli	> 128 µg/mL
